experiment: gradient 5% acetonitrile 3 min, to 50% in 2 min, to 85% in 15 min, held 3 min, 100 µL/min; details: column: Zorbax Extend-C18 2.1 x 50 mm; eluents: water / acetonitrile, 0.1% formic acid
Give RP-LC retention time for every item shown.
Reply numerically in s, unit not repeated.

Look up RP-LC retention time for this molecule: CCc1nc2ccc(-c3noc(C(C)NC(=O)c4ccco4)n3)cc2n1CC (centres undefined) 621

Param item = Cc1ccc(S(=O)(=O)N2CCc3c(c(-c4nnc(-c5ccccc5F)o4)nn3C)C2)cc1Cl ; retrieve measured RP-LC retention time. 1040

Fill in the blank: the reported RP-LC retention time of COc1cc(-c2oc3cc(O)cc(O)c3c(=O)c2O[C@@H]2O[C@H](CO)[C@@H](O)[C@H](O)[C@H]2O)ccc1O is ____. 684

Item under review: Cc1ccc(NC(=O)N2CCC(n3cnc4c(Cl)cccc4c3=O)CC2)cc1C . Reported RP-LC retention time? 877

If you can, please state the reported RP-LC retention time value of Cc1ccc(NC(=O)N(C)CCc2noc(COc3ccccc3F)n2)cc1F . 943

Recorded RP-LC retention time for Brc1ccc(OCc2nnc3sc(-c4cccnc4)nn23)cc1 , please? 831

# input molecule: CCN1CCN(c2ncc3c(n2)CC(C)CC3=O)CC1 (centres undefined) ; wanted: its RP-LC retention time 575

State the recorded RP-LC retention time for this entry: COc1ccccc1NC(=O)C1CCN(S(=O)(=O)c2c(C)[nH]c(C)c2C(=O)N2CCCC2)CC1 693

Name the reported RP-LC retention time value associated with the molecule CC(CCc1ccccc1)NC(=O)CCc1c(-c2ccc(F)cc2)nc2ccccn12 (centres undefined) 727

----------
experiment: gradient 5% acetonitrile 3 min, to 50% in 2 min, to 85% in 15 min, held 3 min, 100 µL/min; conditions: column: Zorbax Extend-C18 2.1 x 50 mm; eluents: water / acetonitrile, 0.1% formic acid
We label by threshold. Values of RP-LC retention time strictly beneath 800 s are Criterion met. Values of 800 s and up are Criterion not met.

Take the compound CCc1cc(C(=O)Nc2ccc(OC)cc2C)nc2ccnn12 and say whether its RP-LC retention time is less than 800 s. Criterion not met

# TODO verify RP-LC retention time < 800 s strictly for this compound: Cc1nc(Nc2ccc(Cl)cn2)sc1C(=O)NCCN(C)C Criterion met

Could you please tell me whether RP-LC retention time recorded for Cc1cc(C)n2nc(-c3ccccc3)c(C)c2n1 is less than 800 s? Criterion not met

Please check: RP-LC retention time for Cc1ccc(-n2c(N3CCCC(C(=O)NCCCOC(C)C)C3)nc3ccsc3c2=O)cc1 (stereo not given) , strictly under 800 s or not? Criterion not met

RP-LC retention time strictly < 800 s for this compound? O=C(Cn1ccc2ccn(CC3CC3)c2c1=O)N1CCOCC1 Criterion met

Problem: For the compound Cc1ccc(Sc2nccnc2N2CCC(C(=O)Nc3cccc(Br)c3)CC2)cc1 , is RP-LC retention time under 800 s? Criterion not met

# TODO verify RP-LC retention time < 800 s strictly for this compound: O=S(=O)(Nc1ccc(F)cc1)c1ccccc1-c1nc(-c2ccccc2)no1 Criterion not met

Dear reviewer, please state whether CCOc1ccc(N2C=C(C#N)S(=O)(=O)c3ccc(Cl)cc32)cc1 has RP-LC retention time strictly beneath 800 s. Criterion not met

Item COc1cccc(CN2CC[C@@H]3CN(S(C)(=O)=O)[C@@H]3C2)c1OC : RP-LC retention time beneath 800 s, strictly? Criterion met

Report whether reported RP-LC retention time is lower than 800 s (strictly) for Cc1nc(N2CCOCC2)c2c(C(=O)N3CCN(c4ccc(Cl)cc4)CC3)c(C)oc2n1 Criterion not met

RP-LC retention time under 800 s? Item: CCN(C(C)=O)c1nc(-c2ccc(C3CCCCC3)cc2)cs1 Criterion not met

Find out if reported RP-LC retention time for Cc1cc(NCCCCCCCNc2cc(C)nc3cc(N)ccc23)c2ccc(N)cc2n1 is less than 800 s Criterion met

Consider Cn1ccc2c(cc(C(=O)NCc3cccc(C(F)(F)F)c3)n2C)c1=O . Does its RP-LC retention time lie strictly below 800 s? Criterion met

Hello, is RP-LC retention time of the following compound strictly smaller than 800 s? CC(C)CC(NC(=O)OCc1ccccc1)C(=O)NC(Cc1c[nH]c2ccccc12)C(=O)O (stereo not given) Criterion not met

# strict comparison: is reported RP-LC retention time < 800 s? input = COc1ccc(NC(=O)N2CCCC2c2nc(-c3ccccc3OC)no2)c(OC)c1 (stereo not given) Criterion not met

In plain terms, does O=C(CN1C(=O)CCS(=O)(=O)c2ccccc21)Nc1ccc(C(F)(F)F)cc1 come in under 800 s for RP-LC retention time? Criterion not met

For COc1cc2c(cc1OC)C(C(=O)NC1CCCCCC1)C(c1cccnc1)N(C)C2=O (stereo not given) , is the recorded RP-LC retention time below the cut-off of 800 s? Criterion met

----------
assay: gradient 5% acetonitrile 3 min, to 50% in 2 min, to 85% in 15 min, held 3 min, 100 µL/min; settings: column: Zorbax Extend-C18 2.1 x 50 mm; eluents: water / acetonitrile, 0.1% formic acid
Assign a class from recorded RP-LC retention time; defined classes: lower band (below 700 s), central band (700 s to below 800 s), upper band (800 s or more)

Class (by measured RP-LC retention time) for CCOc1ccc(NC(=O)CNC(=O)C2CCCCC2)cc1 central band

Which bin, given its RP-LC retention time, does Cc1ccc(CNC(=O)C2(C)CCN(C(=O)Nc3ccccc3C(F)(F)F)CC2)cc1 occupy? upper band

Form field 'band' for O=C(NCc1cscn1)C1CCN(S(=O)(=O)c2cccs2)CC1 lower band

Which class holds O=C(Cn1ncn2nc(-c3cccs3)cc2c1=O)N1CCN(c2ccccn2)CC1 ? lower band

Kindly state the category for this compound: CCCNC(=O)C1CCCN(c2nc3ncn(CC(=O)Nc4ccc5c(c4)CCC5)c(=O)c3s2)C1 (stereo not given) central band

Form: Item = Cc1ccc(-n2nc3c(N4CCCC(C(=O)N5CCOCC5)C4)nnc(C)c3c2C)cc1 (stereo not given) ; Class = ? central band

Determine which band this compound sits in: CC(=O)N[C@@H]1CCNC[C@@H]1c1nc(-c2ccccc2)no1 lower band

Class (by measured RP-LC retention time) for CCc1ccc(-c2nc(-c3ccc4nnc(C)n4c3)no2)cc1 upper band

Lab log: COC(=O)c1nnn(-c2ccccc2C(F)(F)F)c1N — assign RP-LC retention time category upper band

Form field 'band' for Cc1nc(N2CCN(c3ccccn3)CC2)c2c3c(sc2n1)CCC3 lower band

Form: Item = CC1CCCCN1CCNC(=O)CCC(=O)N1CCc2c(c(C(=O)N3CCCCC3)nn2C)C1 (stereo not given) ; Class = ? lower band

Entry O=C(O)C1CCN(c2nc3ccc(-c4ccccc4F)nc3s2)CC1 belongs to which category? upper band

Where would CCc1nnc2cc(N3CCN(Cc4cn[nH]c4-c4ccccc4)CC3)cnn12 land among the classes by reported RP-LC retention time? lower band

Tag the class for CCCNc1cc(N2CCC(CCC(=O)NCc3cccnc3)CC2)ncn1 lower band

Category of CC(C)C(=O)Nc1ccc(C(=O)NCCNS(=O)(=O)c2ccc3c(c2)OCCO3)cc1 : lower band

Please let me know in which category the item CC(C)(C)c1noc(-c2ccc(-n3cnc(C(=O)NC4CCCCC4)c3)nc2)n1 belongs. upper band

----------
assay: gradient 5% acetonitrile 3 min, to 50% in 2 min, to 85% in 15 min, held 3 min, 100 µL/min; conditions: column: Zorbax Extend-C18 2.1 x 50 mm; eluents: water / acetonitrile, 0.1% formic acid
readout_type: RP-LC retention time (s)
Provide the reading as a plain figure in s.

I am curious: what RP-LC retention time value has been reported for COc1ccc(-c2nc(-c3ccc4c(c3)ncn4CCN3CCCCC3)no2)cc1 ? 658

Tell me the measured RP-LC retention time of Cc1nc(-c2ccncc2)nc2c1CCC(=O)N2C1CCCC1 , please. 773

I would be grateful if you could share the reported RP-LC retention time for O=C(c1cn(-c2cc(N3CCSCC3)ncn2)cn1)N1CCc2ccccc2C1 . 886

For the compound Cc1cccc(-c2nnc(-c3nc(NC4CCS(=O)(=O)C4)c4ccccc4n3)o2)c1 (stereo not given) , what RP-LC retention time is on record? 821

Param item = CCOC(=O)C1CCN(C(=O)C2CCCN(c3ccc(-c4ccc(C)c(C)c4)nn3)C2)CC1 (stereo not given) ; retrieve measured RP-LC retention time. 761

Could you tell me which RP-LC retention time is on file for Cc1cnc(C2CN(C(=O)c3ccsc3)C2)n1CC1CC1 ? 595

What RP-LC retention time value was documented for this compound, COc1cc2c(cc1OC)CN(S(=O)(=O)CCCNC(=O)CC1CCCCC1)CC2 ? 767

Suppose we examine the compound CSc1ccc(CNC(=O)CSc2nccc(N3CCN(c4cc(C)ccc4C)CC3)n2)cc1 ; what RP-LC retention time value has been reported? 921

Look up RP-LC retention time for this compound: Cc1cc(C)n(-c2nc(CC(=O)Nc3ccc(N(C)C)cc3)cs2)n1 650

// query RP-LC retention time value for entry COc1ccc(CNC(=O)c2cn3cc(Cl)ccc3n2)cc1 811
